This collection of values is drawn from patent US20240246951A1.

- Tested on: SARS-CoV-2WK-521
- ASSAY_DETAILS: microbe, parasite or virus in culture
- Type: cell-based
- COND: read-out: EC50
Below, each entry is listed with its recorded EC50.
MEASURED_QUANTITY: EC50

1) CC1(C)[C@@H]2[C@@H](C(=S)N[C@@H](C[C@@H]3CCNC3=O)C(=O)c3nc4c(F)cccc4s3)N(C(=O)[C@H](CC(F)(F)F)NC(=O)C(F)(F)F)C[C@@H]21 [Compound 248s] | < 300 nM
2) CC(C)(C)[C@H](NC(=O)C(F)(F)F)C(=O)N1C[C@H]2[C@@H]([C@H]1C(=S)N[C@@H](C[C@@H]1CCNC1=O)C(=O)c1nc3c(F)ccc(F)c3s1)C2(C)C [Compound 247s] | < 300 nM
3) CC(C)(F)[C@H](NC(=O)C(F)(F)F)C(=O)N1C[C@H]2[C@@H]([C@H]1C(=S)N[C@@H](C[C@@H]1CCNC1=O)C(=O)c1nc3c(F)cccc3s1)C2(C)C [Compound 250s] | < 300 nM
4) CC(C)(F)[C@H](NC(=O)C(F)(F)F)C(=O)N1C[C@H]2[C@@H]([C@H]1C(=S)N[C@@H](C[C@@H]1CCNC1=O)C(=O)c1nc3c(F)ccc(F)c3s1)C2(C)C [Compound 251s] | < 300 nM
5) CC(C)(F)[C@H](NC(=O)C(F)(F)F)C(=O)N1C[C@H]2[C@@H]([C@H]1C(=O)N[C@@H](C[C@@H]1CCNC1=O)C(=O)c1nc3c(F)ccc(F)c3s1)C2(C)C | < 200 nM

====

Listed here: items and their measured CC50.
- Tested on: Vero E6 cells
- ASSAY_DETAILS: Cytotoxicity test, MTT assay
- Format: cell-based
- COND: 3 days
MEASURED_QUANTITY: CC50

1) CC(C)(F)[C@H](NC(=O)C(F)(F)F)C(=O)N1C[C@H]2[C@@H]([C@H]1C(=O)N[C@@H](C[C@@H]1CCNC1=O)C(=O)c1nc3c(F)ccc(F)c3s1)C2(C)C | > 100 µM
2) CC1(C)[C@@H]2[C@@H](C(=O)N[C@@H](C[C@@H]3CCNC3=O)C(=O)c3nc4c(F)cccc4s3)N(C(=O)[C@H](CC(F)(F)F)NC(=O)C(F)(F)F)C[C@@H]21 | > 100 µM
3) CC(C)(F)[C@H](NC(=O)C(F)(F)F)C(=O)N1C[C@H]2[C@@H]([C@H]1C(=O)N[C@@H](C[C@@H]1CCNC1=O)C(=O)c1nc3c(F)cccc3s1)C2(C)C | > 100 µM
4) CC1(C)[C@@H]2[C@@H](C(=S)N[C@@H](C[C@@H]3CCNC3=O)C(=O)c3nc4c(F)cccc4s3)N(C(=O)[C@H](CCC(F)(F)F)NC(=O)C(F)(F)F)C[C@@H]21 [Compound 249s] | > 100 µM
5) CC(C)(C)[C@H](NC(=O)C(F)(F)F)C(=O)N1C[C@H]2[C@@H]([C@H]1C(=S)N[C@@H](C[C@@H]1CCNC1=O)C(=O)c1nc3c(F)ccc(F)c3s1)C2(C)C [Compound 247s] | > 100 µM
6) CC1(C)[C@@H]2[C@@H](C(=O)N[C@@H](C[C@@H]3CCNC3=O)C(=O)c3nc4c(F)cccc4s3)N(C(=O)[C@H](CCC(F)(F)F)NC(=O)C(F)(F)F)C[C@@H]21 | > 100 µM
7) CC1(C)[C@@H]2[C@@H](C(=S)N[C@@H](C[C@@H]3CCNC3=O)C(=O)c3nc4c(F)cccc4s3)N(C(=O)[C@H](CC(F)(F)F)NC(=O)C(F)(F)F)C[C@@H]21 [Compound 248s] | > 100 µM
8) CC(C)(F)[C@H](NC(=O)C(F)(F)F)C(=O)N1C[C@H]2[C@@H]([C@H]1C(=S)N[C@@H](C[C@@H]1CCNC1=O)C(=O)c1nc3c(F)cccc3s1)C2(C)C [Compound 250s] | > 100 µM
9) CC(C)(C)[C@H](NC(=O)C(F)(F)F)C(=O)N1C[C@H]2[C@@H]([C@H]1C(=O)N[C@@H](C[C@@H]1CCNC1=O)C(=O)c1nc3c(F)ccc(F)c3s1)C2(C)C | > 100 µM
10) CC(C)(F)[C@H](NC(=O)C(F)(F)F)C(=O)N1C[C@H]2[C@@H]([C@H]1C(=S)N[C@@H](C[C@@H]1CCNC1=O)C(=O)c1nc3c(F)ccc(F)c3s1)C2(C)C [Compound 251s] | > 100 µM
